molecular target: SV2A (Macaca mulatta); assay: PET imaging studies in rhesus monkeys; conditions: Cerebellum; from VT, centrum semiovale as reference region
Sequence (H9EQH8 1-742): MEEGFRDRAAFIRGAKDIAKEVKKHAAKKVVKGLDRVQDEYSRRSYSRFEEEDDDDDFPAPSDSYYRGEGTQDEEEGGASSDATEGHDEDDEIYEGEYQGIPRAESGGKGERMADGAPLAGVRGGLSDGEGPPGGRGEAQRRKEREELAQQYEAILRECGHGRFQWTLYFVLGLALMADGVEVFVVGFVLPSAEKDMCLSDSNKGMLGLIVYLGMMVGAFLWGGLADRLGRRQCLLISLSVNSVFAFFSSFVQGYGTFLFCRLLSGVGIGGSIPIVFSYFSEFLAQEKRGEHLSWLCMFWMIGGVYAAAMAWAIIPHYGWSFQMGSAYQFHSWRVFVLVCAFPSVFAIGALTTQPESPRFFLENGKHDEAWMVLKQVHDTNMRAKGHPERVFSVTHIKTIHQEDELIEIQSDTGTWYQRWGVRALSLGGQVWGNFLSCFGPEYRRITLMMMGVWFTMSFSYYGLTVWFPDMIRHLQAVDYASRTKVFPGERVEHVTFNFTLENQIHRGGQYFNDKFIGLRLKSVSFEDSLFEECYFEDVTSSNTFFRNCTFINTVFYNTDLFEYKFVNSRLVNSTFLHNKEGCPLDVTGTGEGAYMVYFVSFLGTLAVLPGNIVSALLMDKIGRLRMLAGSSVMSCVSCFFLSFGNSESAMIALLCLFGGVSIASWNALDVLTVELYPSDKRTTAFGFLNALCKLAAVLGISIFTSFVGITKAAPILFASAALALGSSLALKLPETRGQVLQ

molecule | Binding potential (BPND)
Cc1cnccc1CN1CC(c2cc(F)cc(F)c2)CC1=O (stereo not shown) [^18F-5] | 2.16
O=C1CC(c2cccc(F)c2)CN1Cc1ccncc1 (stereo not shown) [^18F-12] | 0.25
O=C1CC(c2cc(F)c(F)c(F)c2)CN1Cc1ccncc1F (stereo not shown) [^18F-10] | 0.22
Cc1cnccc1CN1CC(c2cccc(F)c2)CC1=O (stereo not shown) [^18F-11] | 1.59
Cc1cnccc1CN1CC(c2ccc(F)c(F)c2)CC1=O (stereo not shown) [^18F-4] | 0.55
Cc1cnccc1CN1CC(c2cc(F)c(F)c(F)c2)CC1=O (stereo not shown) [^18F-3] | 1.88
Cc1cnccc1CN1CC(c2cc(F)c(F)c(F)c2)CC1=O (single isomer, unassigned) [^11C-3] | 1.68
